tested on: SK-MEL-28 melanoma; experiment: NCI tumour cell line growth inhibition, 48 h
observed.property: GI50

Use these answered entries as a reference point.
COc1cc(OC)c2sc(-c3ccc(-n4cncc4-c4ccc(OC)c(OC)c4)cc3)nc2c1 ... > 100 µM
Cc1cc(N/N=C/c2nc(-c3ccc(Cl)cc3)oc2C)c2cc(Br)ccc2n1 ... 2.07 µM
Nc1c(C(=O)c2cccc(C#CCN3CCCCC3)c2)cnn1-c1ccc(F)cc1 ... > 25 µM

State the recorded GI50 for this entry: CC(NC(=O)Cc1ccc(C(F)(F)P(=O)(OCc2ccc([N+](=O)[O-])o2)N(C)CCCCCl)cc1)c1ccc(OCC2CCCCC2)c(C(N)=O)c1 (stereo unspecified) 12.2 µM

State the recorded GI50 for this entry: CCCCCCNCCCNc1c2cc(OC)ccc2nc2cccc([N+](=O)[O-])c12 0.305 µM

State the recorded GI50 for this entry: CN(Cc1ccc(F)cc1)c1ccc(CO)c(Cl)c1 31.3 µM

State the recorded GI50 for this entry: CCN1[C@@H](C(=O)NC23CCC(C(=O)O)(CC2)CC3)[C@H](c2cccc(Cl)c2F)[C@]2(C(=O)Nc3cc(Cl)ccc32)C12CCCCC2 3.71 µM

State the recorded GI50 for this entry: C/C(=C(/c1ccccc1)c1ccc(OCC(O)CNCCN2CCOCC2)cc1)c1ccccc1 (stereo unspecified) 1.75 µM

State the recorded GI50 for this entry: COc1ccc(C2=NC(=O)NC2c2ccc(OC)cc2)cc1 (stereo unspecified) 14.9 µM

State the recorded GI50 for this entry: Cc1cn(-c2cccc(NC(=O)c3ccc(C)c(Nc4nccc(-c5cccnc5)n4)c3)c2)cn1 1.8 µM

State the recorded GI50 for this entry: FC(F)(F)c1ccc(-c2nn3ncccc3c2-c2ccnc(Nc3ccc4c(c3)OCCO4)n2)cc1 > 25 µM

----------
tested on: SNB-19 CNS; experiment: NCI tumour cell line growth inhibition, 48 h; in the data active = GI50 below about 0.43 µM; inactive = the rest
Form entry, call: pick from active, inactive

CCCCCCCCCc1ccc(OCCOCCOCCOCCOCCOCCOCCOCCOCCO)cc1 ... inactive
CCCC1(CN2c3ccccc3Sc3ccc(Cl)cc32)CCN(CC)C1 (stereo unspecified) ... inactive
Cc1cc(NCc2cc(Nc3ccnc4cc(Cl)ccc34)ccc2F)nc(N2CCOCC2)n1 ... inactive
CCn1cc(/C=C2\Oc3cc(OCC#N)ccc3C2=O)c2cc(OC)ccc21 ... active
COc1ccc(-c2nc(-c3nc4cc(Cl)c(F)cc4[nH]3)c3ccccn23)cc1 ... inactive
C=C1C(=O)O[C@H]2[C@H]1CC/C(Cn1cc(-c3ccc(N)cc3)nn1)=C\CC[C@@]1(C)O[C@@H]21 ... inactive

For O=C1c2cccnc2-c2nc(-c3cccnc3)cc3c2c1nc1ccccc13 , what call appears in the results of this test? inactive

For O=C(CC1(O)C(=O)Nc2ccc(F)cc21)c1ccc(C(=O)NCC2CCC3(CC2)OOC2(CCCCC2)OO3)cc1 (stereo unspecified) , what call appears in the results of this test? inactive

For CCCCCCNCCCNc1c2cc(OC)ccc2nc2cccc([N+](=O)[O-])c12 , what call appears in the results of this test? inactive

For CCOC(=O)c1sc(-c2ccc(OS(=O)(=O)C[C@]34CCC(CC3=O)C4(C)C)c(C=O)c2)nc1C , what call appears in the results of this test? inactive

For CCCN(CCC)c1ccc(C=O)c(Cl)c1 , what call appears in the results of this test? inactive
